MIC for assorted compounds
# Test system: Pseudomonas aeruginosa
# method: Antimicrobial activity against Pseudomonas aeruginosa harboring deltapvdF-deltapchA mutant assessed as inhibition of bacterial growth by measuring minimal inhibitory concentration incubated for 24 hrs in presence of iron-depleted CAA medium
# Assay type: functional
quantity-name: MIC

{"compound": "CN[C@@H]1[C@@H](O)[C@@H](O[C@@H]2[C@@H](O)[C@H](O[C@H]3O[C@H](C(C)N)CC[C@H]3N)[C@@H](N)C[C@H]2N)OC[C@]1(C)O (stereo partly drawn)", "test-result": "1 µM"}
{"compound": "C#CCNC(=O)CN1CCN(CC(=O)NCCNC(=O)c2cccc(O)c2O)CCN(CC(=O)NCCNC(=O)c2cccc(O)c2O)CCN(CC(=O)NCCNC(=O)c2cccc(O)c2O)CC1", "test-result": "64 µM"}
{"compound": "CC[C@@H](C)[C@@H](NC(=O)[C@@H](CCSC)NC(=O)[C@H](NC(=O)[C@@H](C)NC(=O)CNC(=O)[C@@H](CC(C)C)NC(=O)[C@@H](CC(=O)O)NC(=O)[C@H](NC(=O)[C@@H](CO)NC(=O)[C@@H](CO)NC(=O)[C@@H](CC(=O)O)NC(=O)c1cccc(O)c1O)C(C)C)[C@H](C)O)C(=O)N[C@@H](C(=O)N[C@H](CO)C(=O)N[C@H](CC(N)=O)C(=O)N[C@H](CCC(N)=O)C(=O)N[C@H](CC(C)C)C(=O)NCC(=O)N[C@@H](C(=O)N[C@@H](C(=O)N[C@H](CCCCN)C(N)=O)[C@H](C)CC)[C@H](C)O)[C@@H](C)O", "test-result": "> 64 µM"}
